target: OTU domain-containing protein 3 (Homo sapiens) (UniProt Q5T2D3); test: Validation of screening hits, potency titration, in vitro enzymatic, OTU domain-containing protein 3 DUB inhibitors (AID 1645868); conditions: purified OTUD3, ubiquitin-rhodamine cleavage fluorescence, 2 h
Sequence (Q5T2D3 whole entry, looked up, the tested form may be a part): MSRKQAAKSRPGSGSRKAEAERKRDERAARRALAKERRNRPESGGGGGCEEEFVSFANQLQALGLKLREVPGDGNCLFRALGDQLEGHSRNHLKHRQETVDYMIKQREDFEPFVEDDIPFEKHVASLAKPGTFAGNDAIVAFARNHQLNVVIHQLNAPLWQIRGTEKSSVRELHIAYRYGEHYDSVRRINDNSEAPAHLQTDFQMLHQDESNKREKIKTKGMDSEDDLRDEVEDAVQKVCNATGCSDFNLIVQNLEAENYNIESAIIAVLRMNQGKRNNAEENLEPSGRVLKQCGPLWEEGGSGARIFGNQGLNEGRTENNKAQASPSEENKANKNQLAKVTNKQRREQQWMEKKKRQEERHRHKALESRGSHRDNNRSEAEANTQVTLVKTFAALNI
Calls of active or inactive are those of the source.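 The calls were made as follows: active = maximal percent inhibition of the deubiquitinase OTUD3 of at least 30% across the tested doses; inactive = the rest.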
Please state which outcome applies, choosing from active, inactive

See these solved cases before continuing.
Compound | Assigned Class
CCCCN(C)C(=O)c1cc2c(=O)n3cccc(C)c3nc2n1Cc1ccccc1 | inactive
COc1ccc(C2/C(=C(\O)c3ccccc3)C(=O)C(=O)N2c2nc3ccc(F)cc3s2)cc1 (stereo not given) | active
COc1ccccc1CNC(=O)C1CCCN(c2nc3ccsc3c(=O)s2)C1 (stereo not given) | inactive

Record request — test call for O=C(NCc1ccc2c(c1)OCO2)c1cc2c(s1)-c1ccccc1OC2 active

Record request — test call for CC(C)OC(=O)c1cc2c(ccn2C)n1CC(=O)N1CCN(C(=O)c2ccco2)CC1 inactive
